- Test system: SF-539 CNS
- assay_notes: NCI-60 one-dose screen, 48 h
- assay_conditions: 10 µM unless noted
This is part of a sample that, as a whole, favours compounds with a hit. Of some 83,000 tested, about 20% had one in any assay. Active and inactive are the calls of the source. Rule for the calls: active = growth percent below 10; inactive = the rest.
Classes used: active, inactive

molecule: CNS(=O)(=O)N1CCc2c(Br)c3c(c(OC)c2C1CCc1ccccc1)OCO3 (stereo not given)
class: active
--
molecule: Nc1nnc(-c2cncc(Br)c2)c(-c2c[nH]c3ccc(Br)cc23)n1
class: inactive
--
molecule: COc1ccc2c(c1)C(Sc1ccc(Br)cc1)c1c(nc(N)c(C#N)c1N)O2 (stereo not given)
class: inactive
--
molecule: Clc1ccccc1Nc1nnc(-c2c[nH]c3ccccc23)o1
class: active
--
molecule: COc1ccc(NC(=O)Nc2nc3ccc([N+](=O)[O-])cc3s2)cc1
class: active
--
molecule: O=CNc1ccc(-n2cnc3cc(-c4ccc(O)cc4)ccc32)cc1
class: inactive
--
molecule: C/C(=N/O)c1ccc(NC(=O)CSc2nnc(-c3ccc(-c4nc5ccc(Cl)cc5[nH]4)cc3)o2)cc1
class: active
--
molecule: NS(=O)(=O)c1cccc(Nc2nc(SCC(=O)c3ccc(F)cc3)nc3ccccc23)c1
class: active
--
molecule: Fc1ccc(Nc2nnc(-c3c[nH]c4ccccc34)o2)cc1
class: inactive
--
molecule: COC(=O)c1cccc(Oc2ccc(NC(=O)Nc3cc(C(F)(F)F)ccc3F)cc2)c1
class: inactive
--
molecule: O=C(CSc1nc2sc3c(c2c(=O)n1-c1ccc(Cl)cc1)CCCC3)NNC(=O)c1ccc(F)cc1
class: active
--
molecule: O=C(N/N=C/c1ccc(Br)o1)c1[nH]c2ccc(Br)cc2c1-c1ccccc1
class: active
--
molecule: COc1cc(/C=C/C(=O)c2cnn(-c3cc(=O)[nH]c4ccc(C)cc34)c2C)cc(OC)c1OC
class: active
--
molecule: CCOc1ccc(-c2cc(-c3cc(C(C)C)c(O)cc3C)nn2-c2ccc(S(N)(=O)=O)cc2)cc1
class: inactive
--
molecule: N/C(=N\c1nc2ccccc2s1)NC(=O)Nc1ccccc1F
class: active
--
molecule: C[C@@H]1[C@H]2C[C@@H](C[C@H]1NCc1nc3ccccc3n1C1CCCCCC1)C2(C)C
class: inactive
--
molecule: ClC(Cn1ncc2c(Nc3cccc(Br)c3)nc(SCCN3CCOCC3)nc21)c1ccc(Br)cc1 (stereo not given)
class: active
--
molecule: Cc1ccc(Cl)cc1NC(=O)Nc1nc2ccc([N+](=O)[O-])cc2s1
class: active
--
molecule: C=CCn1c(O)c(N=Nc2nc(-c3cc4ccccc4oc3=O)cs2)c2ccccc21
class: inactive
--
molecule: Oc1ccc(F)c(Nc2nc(SCCN3CCOCC3)nc3c2cnn3CC(Cl)c2ccc(Br)cc2)c1 (stereo not given)
class: inactive
--
molecule: C[C@H](NC(=O)c1ccc2c(-c3ccc(C(F)(F)F)cc3)cccc2c1)c1ccccn1
class: inactive
--
molecule: Cc1ccc(C(=O)C[n+]2cccc3c4ccccc4ccc32)cc1
class: inactive
--
molecule: O=C(N/N=C/c1ccc(B(O)O)s1)c1[nH]c2ccc(Br)cc2c1-c1ccccc1
class: active
--
molecule: C=CCSc1nnc(-c2ccc(-c3nc4ccc(Cl)cc4[nH]3)cc2)o1
class: inactive
--
molecule: COc1ccc(CCC2NCCc3c(Br)c4c(c(OC)c32)OCO4)cc1 (stereo not given)
class: active
--
molecule: CN(C)CCCNC(=S)Nc1ccc(/C=C/c2ccc(Cl)cc2)cc1
class: active
--
molecule: Cc1nc(Nc2ccccn2)sc1C1=NNC(c2ccccc2F)C1 (stereo not given)
class: inactive
--
molecule: S=C(Nc1ccc(OCc2nc3ccc(Cl)cc3[nH]2)cc1)NC1CCCCC1
class: active
--
molecule: COc1cc(C=O)ccc1OC(=O)c1cc(-c2ccc(C)cc2)n(-c2ccc(S(C)(=O)=O)cc2)n1
class: inactive
--
molecule: C=CC[n+]1cccc2c3ccccc3ccc21
class: inactive
--
molecule: Cc1ccc2nc(SCc3ccccc3F)n(-c3ccccc3)c(=O)c2c1
class: inactive
--
molecule: O=C(CSc1nc2ccccc2c(=O)[nH]1)Nc1ccccc1C(=O)O
class: inactive
--
molecule: COc1c2c(c(Br)c3c1C(CCc1ccccc1)N(C)CC3)OCO2 (stereo not given)
class: active
--
molecule: COc1ccccc1NC(=O)N/N=C/c1c[nH]c2ccccc12
class: active
--
molecule: COC(=O)c1c(C(=O)OC)c2ccc3c4ccccc4ccc3n2c1C(=O)OC
class: inactive
--
molecule: CCOc1ccccc1NC(=O)N/C(N)=N/c1nc2ccccc2s1
class: active
--
molecule: O=[N+]([O-])c1cccc(-c2nnc3c(/C=C/c4ccc(F)cc4)nc4ccccc4n23)c1
class: inactive
--
molecule: O=C(Nc1ccc(-c2ccc3c(c2)NC(=O)/C3=C\c2ccc[nH]2)cc1)Nc1cccc(Cl)c1
class: active
--
molecule: Cc1cc(=O)oc2cc(OCC(O)CNN3C(=O)c4cccc5c(N6CCN(C)CC6)ccc(c45)C3=O)ccc12 (stereo not given)
class: inactive
--
molecule: CN1CCN(CCS(=O)(=O)Nc2cc(-c3ccc4ncnc(Nc5ccc(F)c(Cl)c5)c4c3)cnc2Cl)CC1
class: active
